Experiment: binders of probe aFSTL3 on microarray, primary screen, stem cell growth factor project, biochemical, small-molecule microarray, fluorescence 635/667 (AID 1064);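 note: measures binding of the biotinylated anti-FSTL3 antibody to printed compounds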
Details: higher = more signal
Output Satisfied for composite z-score not less than -0.1; output Not satisfied otherwise.

query: Could you tell me if the measured composite z-score of `COC(=O)CC=C[C@@H](C)[C@@H](C=NOC[C@@H](C)[C@H](OCc1ccccc1)C(C)C)OC` reaches -0.1 or more?
result: Not satisfied

query: Evaluate `COc1ccc(COC(=O)NN=C2C[C@@H](O)[C@@H](O)[C@@H]3[C@@H]4C(=O)N(Cc5ccc6c(c5)OCO6)C(=O)[C@@H]4CC[C@H]23)cc1` : composite z-score at minimum -0.1?
result: Satisfied

query: Hello, I need to know if `CC(C)=NO[C@H](C)c1cn([C@@H]2COC[C@H]2O)nn1` has measured composite z-score not below -0.1. Thanks!
result: Not satisfied

query: Could you tell me if the measured composite z-score of `C#CCCCON=C1[C@H]2CCn3c(=O)n([C@@H](CC)c4ccccc4)c(=O)n3[C@H]2[C@H](O)[C@@H]2O[C@H]12` reaches -0.1 or more?
result: Not satisfied

query: Threshold query (composite z-score >= -0.1) on `O=C1[C@H]2[C@H]3[C@H](O)[C@H](O)CC(=NO[C@@H]4O[C@H](CO)[C@@H](O)[C@H](O)[C@H]4O)[C@@H]3CC[C@H]2C(=O)N1C[C@@H]1CCCO1`
result: Not satisfied

query: hey, is composite z-score for this one >= -0.1? `CCOC(=O)CCN1C(=O)[C@H]2[C@H]3[C@H](O)[C@H](O)CC(=NOCC=C(C)CCC=C(C)C)[C@H]3CC[C@H]2C1=O`
result: Not satisfied

query: // inclusive: composite z-score at least -0.1? input: `CCO[C@H](c1cc(OC)cc([N+](=O)[O-])c1OC)[C@H](C)[C@@H](OC)[C@H](C)C=CCC(=O)OC`
result: Satisfied

query: Is composite z-score at least -0.1? Consider `CON(C)C(=O)c1nnc2c(n1)[nH]c1ccccc12`
result: Not satisfied

query: Please indicate if the recorded composite z-score for `CCOC(=O)CCN1C(=O)[C@H]2[C@H]3[C@H](O)[C@H](O)CC(=NNC(=O)OCC)[C@H]3CC[C@H]2C1=O` meets or exceeds -0.1.
result: Not satisfied

* * *

Please respond with reported composite z-score for every item in the list.
Target: Dihydroorotate dehydrogenase (quinone), mitochondrial (Plasmodium falciparum (isolate 3D7)) (UniProt Q08210)
Sequence (Q08210 whole entry, looked up): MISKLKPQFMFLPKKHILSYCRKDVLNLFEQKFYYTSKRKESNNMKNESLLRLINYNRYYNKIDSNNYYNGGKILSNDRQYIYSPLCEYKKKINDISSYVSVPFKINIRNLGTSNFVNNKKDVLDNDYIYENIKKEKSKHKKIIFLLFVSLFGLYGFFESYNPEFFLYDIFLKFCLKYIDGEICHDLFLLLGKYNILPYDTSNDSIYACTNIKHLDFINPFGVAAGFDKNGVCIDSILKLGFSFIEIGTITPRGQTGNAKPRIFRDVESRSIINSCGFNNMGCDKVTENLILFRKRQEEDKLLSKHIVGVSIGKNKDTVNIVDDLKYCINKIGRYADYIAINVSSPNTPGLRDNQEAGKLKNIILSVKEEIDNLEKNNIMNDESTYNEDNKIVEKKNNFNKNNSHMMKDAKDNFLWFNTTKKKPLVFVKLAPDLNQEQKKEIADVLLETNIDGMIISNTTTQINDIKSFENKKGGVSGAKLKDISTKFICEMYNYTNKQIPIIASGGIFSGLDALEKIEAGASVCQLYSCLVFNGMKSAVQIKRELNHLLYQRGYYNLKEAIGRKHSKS
Assay: PfDHODH enzyme inhibitors, primary screen, biochemical, C-terminal His tag, absorbance 600 nm (AID 1175);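 note: recombinant parasite enzyme with a five histidine tag at its C terminus; test concentration not given here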
Conditions: DCIP absorbance 600 nm, higher = more signal, called active from +8 up or from −8 down
Please give the numeric answer without any surrounding text.

query: Entry `C=CC[C@@H]1C=C[C@H](ON=C(C)CCN2CCCc3nc(C)c(C)cc32)[C@@H](CO)O1` has what composite z-score?
result: -0.267

query: Name the reported composite z-score value associated with the molecule `C[C@@H]1C=CCC(=O)OC[C@H](C)C(=O)N[C@@H](Cc2ccccc2)C(=O)OC1`
result: -2.99

query: Which composite z-score value belongs to `CC(C)=CCCC(C)=CCON=C1C[C@@H](O)[C@@H](O)[C@@H]2[C@@H]3C(=O)N(Cc4ccc5c(c4)OCO5)C(=O)[C@@H]3CC[C@H]12` ?
result: -0.108

query: Could you share which composite z-score value was measured for `CC(C)CON=C1C[C@@H](O)[C@@H](O)[C@@H]2[C@@H]3C(=O)N(Cc4ccc5c(c4)OCO5)C(=O)[C@@H]3CC[C@@H]12` ?
result: 0.0312

query: composite z-score lookup needed for `C[C@@H](c1ccccc1)N1C(=O)[C@H]2[C@H]3[C@H](O)[C@H](O)CC(=NOC[C@@H](O)COCc4ccco4)[C@H]3CC[C@H]2C1=O` , thanks.
result: -0.222

query: Item under review: `C#CCCCON=C1[C@H]2CCn3c(=O)n([C@@H](CC)c4ccccc4)c(=O)n3[C@H]2[C@H](O)[C@@H]2O[C@H]12` . Reported composite z-score?
result: 0.147

query: Could you tell me which composite z-score is on file for `CCO[C@H](c1cc(OC)cc([N+](=O)[O-])c1OC)[C@H](C)[C@@H](OC)[C@H](C)C=CCC(=O)OC` ?
result: 0.189

query: What value of measured composite z-score is listed for `CC(=O)OC[C@H]1O[C@@H](ON=C(C)CCN2CCCCc3nc(C)c(C)cc32)[C@H](OC(C)=O)[C@@H](OC(C)=O)[C@@H]1OC(C)=O` ?
result: -2.52

query: Look up composite z-score for this molecule: `COC(=O)CC=C[C@@H](C)[C@@H](C=NOC[C@@H](O)[C@H]1O[C@@H]2OC(C)(C)O[C@@H]2[C@H]1O)OC`
result: 0.757

query: For the molecule shown here, `CC(=O)OC[C@H]1O[C@H](CC=NOCC[C@@H]2C=C[C@H](OC(C)=O)[C@@H](COC(C)=O)O2)C=C[C@@H]1OC(C)=O` , give the reported composite z-score.
result: -0.0986

query: If you can, please state the reported composite z-score value of `COc1ccc2c(c1)O[C@@H](c1cccc(C(F)(F)F)c1)[C@H](O)C2=O` .
result: -0.445

query: Suppose we examine the molecule `O=C1C2=CC[C@H]3C(=O)N(Cc4ccccc4)C(=O)[C@H]3[C@H]2[C@H](O)[C@@H]2O[C@H]12` ; what composite z-score value has been reported?
result: -1.59

query: Report composite z-score for `O=C1[C@H]2[C@H]3[C@H](O)[C@H](O)CC(=NOCc4ccccc4)[C@H]3CC[C@H]2C(=O)N1C1CCCCC1` please.
result: 0.0894

query: # input molecule: `CC(C)[C@H](NC(=O)OC(C)(C)C)[C@@H](O)CC(=O)C(C)(C)C` ; wanted: its composite z-score
result: 0.525

query: Recorded composite z-score for `CCCNC(=O)OC[C@H]1O[C@H](CCON=C[C@@H](C)[C@H](OCc2ccccc2)C(C)C)C=C[C@@H]1Oc1ccc(OC)cc1` , please?
result: -1.78

query: Need composite z-score of COC(=O)[C@H](C)NC(=O)CCC1CC(OC(=O)NCc2cccc3ccccc23)CC2(CCCC(COC(=O)NCCC(C)C)O2)O1 (stereo not given in full) , thanks.
result: -1.24

query: For the molecule `C[C@@H](c1ccccc1)N1C(=O)[C@H]2[C@H]3[C@H](O)[C@H](O)CC(=NOCc4ccccc4)[C@@H]3CC[C@H]2C1=O` , what composite z-score is on record?
result: 0.805

query: Dear colleague, I am looking for the recorded composite z-score of the following molecule: `CC(CCN1CCCc2nc(C)c(C)cc21)=NO[C@H](C)c1cn([C@@H]2COC[C@H]2O)nn1`
result: -0.0105

query: Which composite z-score is listed for `CC(C)(C)N1C(=O)[C@H]2[C@H]3[C@H](O)[C@H](O)CC(=NNC(=O)OCc4ccccc4)[C@H]3CC[C@H]2C1=O` ?
result: -2.25

query: Requested read-out: composite z-score. Entry: `CCN1C(=O)[C@H]2[C@H]3[C@H](O)[C@H](O)CC(=NOC[C@@H](O)COCc4ccco4)[C@H]3CC[C@H]2C1=O`
result: -0.164

query: // lookup composite z-score for `CCN1C(=O)[C@H]2[C@H]3[C@H](O)[C@H](O)CC(=NO[C@@H]4O[C@H](COC(C)=O)[C@@H](OC(C)=O)[C@H](OC(C)=O)[C@H]4OC(C)=O)[C@@H]3CC[C@H]2C1=O`
result: -0.0673

query: I would be grateful if you could share the reported composite z-score for `CCN1C(C)=C(C(=O)OC)[C@@H](c2ccccc2)N2C(=O)[C@](O)(C(=O)OC)CC(C(C)=O)=C12` .
result: -1.27

query: Using the record for `CC(C)CON=C1C[C@@H](O)[C@@H](O)[C@@H]2[C@@H]3C(=O)N(C(C)(C)C)C(=O)[C@@H]3CC[C@@H]12` , report its composite z-score.
result: -1.88

query: Item under review: `CC(CCN1CCCCc2nc(C)c(C)cc21)=NOC[C@@H](O)[C@H]1O[C@@H]2OC(C)(C)O[C@@H]2[C@H]1O` . Reported composite z-score?
result: -0.183

query: Give the measured composite z-score of `O=C1C2=CC[C@H]3C(=O)N(c4ccc(F)cc4F)C(=O)[C@H]3[C@H]2[C@H](O)[C@@H]2O[C@H]12` .
result: -0.166

* * *

Assay: binders of probe aFST on microarray, primary screen, stem cell growth factor project, biochemical, small-molecule microarray, fluorescence 635/667 (AID 1086);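 note: score merges 667 nm fluorescence with signal-to-noise of each printed compound spot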
Settings: higher = more signal
endpointLabel: composite z-score
Could you keep your reply to the number by itself?

query: # get_value(readout='composite z-score', item= `CCCNC(=O)OC[C@H]1O[C@H](CCON=C2c3cc(OC)ccc3O[C@H](c3cccc(OC)c3)[C@H]2O)C=C[C@@H]1Oc1ccc(OC)cc1` )
result: 0.167

query: Return reported composite z-score; argument: `CCN1C(=O)[C@H]2[C@H]3[C@H](O)[C@H](O)CC(=NO[C@@H]4O[C@H](CO)[C@@H](O)[C@H](O)[C@H]4O)[C@H]3CC[C@H]2C1=O`
result: 0.293

query: Which value of composite z-score has been reported for `CCN1C(C)=C(C(=O)OC)[C@@H](c2ccccc2)N2C(=O)[C@](O)(C(=O)OC)CC(C(C)=O)=C12` in the records?
result: 0.101

query: Which composite z-score value belongs to `CO[C@H]1COC(=O)CCC[C@H](C)[C@H](OC)COC(=O)CC=C[C@@H]1C` ?
result: -0.168

query: # lookup: composite z-score of COC(=O)C(C(=O)OC)C1CCCC(=O)C1 (stereo not given)
result: 0.406

query: Returns the measured composite z-score for the input compound. Input: `O=C1C[C@@H](O)[C@@H](O)[C@@H]2[C@@H]3C(=O)N(c4ccc(F)cc4F)C(=O)[C@@H]3CC[C@H]12`
result: 0.201

query: Give the measured composite z-score of Cc1cc2c(nc1C)CCCCN2CC(O)CN1CCCc2nc(-c3ccc(Br)cc3)ccc21 (stereo not given) .
result: 0.5

query: Given `COc1cccc([C@H](O)Cn2cc(-c3ccc(CON=C(C)C)cc3)nn2)c1` , state its recorded composite z-score.
result: 0.0775

query: I'd like to know its composite z-score. The compound in question is `C[C@@H]1CC[C@H]2C(=O)O[C@@H](COc3ccc(C(C)(C)C)cc3)CN2[C@H]1c1ccc(Br)cc1`
result: 0.153

query: Please report the recorded composite z-score for COC(=O)[C@H](C)NC(=O)CCC1CC(OC(=O)NCc2ccc3c(c2)OCO3)CC2(CCCC(COC(=O)NCCC(C)C)O2)O1 (stereo not given in full) .
result: 0.0929

query: Which composite z-score is listed for `C=CC[C@@H]1C=C[C@H](ON=CC[C@@H]2C=C[C@H](OC(C)=O)[C@@H](COC(C)=O)O2)[C@@H](CO)O1` ?
result: 1.06

query: Value lookup for composite z-score; key = `COC(=O)[C@@H]1CC[C@H](C)[C@@H](c2ccc(C)cc2)N1C(=O)c1ccc(C=NO[C@@H](C)c2cc(-c3c(C)cc(C)cc3C)no2)cc1`
result: 0.188

query: // returns reported composite z-score for input `CCOC(=O)CCN1C(=O)[C@H]2[C@H]3[C@H](O)[C@H](O)CC(=NOCC=C(C)CCC=C(C)C)[C@H]3CC[C@H]2C1=O`
result: 0.752

query: Quick check: composite z-score of `CC#CCOCCC=C1c2ccccc2[C@@H](OC)[C@@H]1C` ?
result: 0.359

query: Looking for the measured composite z-score of `O=C1C[C@@H](O)[C@@H](O)[C@@H]2[C@@H]3C(=O)N(Cc4ccccc4)C(=O)[C@@H]3CC[C@H]12` , can you help?
result: 0.256

query: composite z-score lookup needed for COC(=O)CC=C[C@@H](C)[C@@H](C=NOC(C)CN1CCCCc2nc(C)c(C)cc21)NS(=O)(=O)c1ccc(C)cc1 (stereo not given in full) , thanks.
result: 0.38

query: Field request: composite z-score | item: COC(=O)[C@H](C)NC(=O)CCC1CC(OC(=O)NCc2cccc3ccccc23)CC2(CCCC(COC(=O)NCCc3ccccc3OC)O2)O1 (stereo not given in full)
result: 0.573

query: So what's the measured composite z-score for this one? COC(=O)[C@H](C)NC(=O)CCC1CC(OC(=O)NCCc2ccc(F)cc2)CC2(CCCC(COC(=O)NCc3ccccc3)O2)O1 (stereo not given in full)
result: 0.65

query: So what's the measured composite z-score for this one? `CC(C)=NO[C@@H](C)c1cn([C@H](CO)Cc2ccccc2)nn1`
result: 0.907

query: Given COC(=O)CC=C[C@@H](C)[C@@H](C=NOC(C)CN1CCCc2nc(C)c(C)cc21)NS(=O)(=O)c1ccc(C)cc1 (stereo not given in full) , state its recorded composite z-score.
result: 0.316
